Data provenance is ChEMBL document CHEMBL1129823.

# Organism: Oryctolagus cuniculus
# method-notes: Relative potency was calculated from the Actin depolymerizing activity (aplyronine A = 100)
# Format: functional
# key: entry, value: Relative potency
outcome-measure: Relative potency

CO[C@H]1CC[C@@H](C)[C@@H](O)[C@H](C)[C@H](O)C/C=C/C=C/C(=O)O[C@H]([C@@H](C)[C@@H](O)[C@@H](C)CC[C@@H](O)[C@H](C)[C@H](OC(C)=O)[C@H](C)/C=C/N(C)C=O)C/C=C/[C@H](OC)C[C@H](C)C/C=C/1C : 86
COCC(C(=O)O[C@@H]1C/C=C/C=C/C(=O)O[C@H]([C@@H](C)[C@@H](O)[C@@H](C)CC[C@@H](OC(=O)C(C)N(C)C)[C@H](C)[C@H](OC(C)=O)[C@H](C)CCO)C/C=C/[C@H](OC)C[C@H](C)C/C=C/[C@@H](OC)CC[C@@H](C)[C@@H](O)[C@@H]1C)N(C)C (some centres not stated) : 82

* * *

# key: entry, value: Relative potency
# Species on record: Oryctolagus cuniculus
# method-notes: Relative potency was calculated from the Actin depolymerizing activity (aplyronine A = 100)
# Type: functional
outcome-measure: Relative potency

COCC(C(=O)O[C@@H]1C/C=C/C=C/C(=O)O[C@H]([C@@H](C)[C@@H](O)[C@@H](C)CC[C@@H](OC(=O)C(C)N(C)C)[C@H](C)[C@H](OC(C)=O)[C@H](C)CCO)C/C=C/[C@H](OC)C[C@H](C)C/C=C(\C)[C@@H](OC)CC[C@@H](C)[C@@H](O)[C@@H]1C)N(C)C (stereo not given in full) : 40
COCC(C(=O)O[C@@H]1C/C=C/C=C/C(=O)O[C@H]([C@@H](C)[C@@H](O)[C@@H](C)CC[C@@H](O)[C@H](C)[C@H](O)[C@H](C)CCO)C/C=C/[C@H](OC)C[C@H](C)C/C=C/[C@@H](OC)CC[C@@H](C)[C@@H](O)[C@@H]1C)N(C)C (stereo not given in full) : 16
COCC(C(=O)O[C@@H]1C/C=C/C=C/C(=O)O[C@H]([C@@H](C)[C@@H](O)[C@@H](C)COC(=O)C(C)N(C)C)C/C=C/[C@H](OC)C[C@H](C)C/C=C/[C@@H](OC)CC[C@@H](C)[C@@H](O)[C@@H]1C)N(C)C (stereo not given in full) : 1.7
COCC(C(=O)O[C@@H]1C/C=C/C=C/C(=O)O[C@H]([C@@H](C)[C@@H](O)[C@@H](C)CC[C@@H](O)[C@H](C)[C@H](OC(C)=O)[C@H](C)CCO)C/C=C/[C@H](OC)C[C@H](C)C/C=C/[C@@H](OC)CC[C@@H](C)[C@@H](O)[C@@H]1C)N(C)C (stereo not given in full) : 86
COCC(C(=O)O[C@@H]1C/C=C/C=C/C(=O)O[C@H]([C@@H](C)[C@@H](O)[C@@H](C)CC[C@@H](OC(=O)C(C)N(C)C)[C@H](C)[C@H](OC(C)=O)[C@H](C)/C=C/N(C)C=O)C/C=C/[C@H](OC)C[C@H](C)C/C=C(\C)[C@@H](OC)CC[C@@H](C)[C@@H](O)[C@@H]1C)N(C)C (stereo not given in full) [APLYRONINE A] : 100

* * *

# Species: Oryctolagus cuniculus
# method-notes: Relative potency was calculated from the Actin depolymerizing activity (aplyronine A = 100)
# Assay type: functional
outcome-measure: Relative potency

COCC(C(=O)O[C@@H]1C/C=C/C=C/C(=O)O[C@H]([C@@H](C)[C@@H](O)[C@@H](C)CC[C@@H](O)[C@H](C)[C@H](OC(C)=O)[C@H](C)/C=C/N(C)C=O)C/C=C/[C@H](OC)C[C@H](C)C/C=C(\C)[C@@H](OC)CC[C@@H](C)[C@@H](O)[C@@H]1C)N(C)C (some centres undefined) : 86
CO[C@H]1CC[C@@H](C)[C@@H](O)[C@H](C)[C@H](O)C/C=C/C=C/C(=O)O[C@H]([C@@H](C)[C@@H](O)[C@@H](C)CC[C@@H](OC(=O)C(C)N(C)C)[C@H](C)[C@H](OC(C)=O)[C@H](C)/C=C/N(C)C=O)C/C=C/[C@H](OC)C[C@H](C)C/C=C/1C (some centres undefined) [APLYRONINE C] : 97
COCC(C(=O)O[C@H]1[C@H](C)[C@H](O)C/C=C/C=C/C(=O)O[C@H]([C@@H](C)[C@@H](O)[C@@H](C)CC[C@@H](OC(=O)C(C)N(C)C)[C@H](C)[C@H](OC(C)=O)[C@H](C)/C=C/N(C)C=O)C/C=C/[C@H](OC)C[C@H](C)C/C=C(\C)[C@@H](OC)CC[C@H]1C)N(C)C (some centres undefined) [APLYRONINE B] : 94
CO[C@@H]1/C=C/C[C@@H](C)C[C@@H](OC)/C=C/C[C@@H]([C@@H](C)[C@@H](O)[C@@H](C)CC[C@@H](OC(=O)CN(C)C)[C@H](C)[C@H](OC(C)=O)[C@H](C)CCO)OC(=O)/C=C/C=C/C[C@@H](OC(=O)CN(C)C)[C@@H](C)[C@H](O)[C@H](C)CC1 : 63

* * *

# Species on record: Oryctolagus cuniculus
# method-notes: Relative potency was calculated from the Actin depolymerizing activity (aplyronine A = 100)
# Assay type: functional
outcome-measure: Relative potency

COCC(C(=O)O[C@@H]1C/C=C/C=C/C(=O)O[C@H]([C@@H](C)[C@@H](O)[C@@H](C)CO)C/C=C/[C@H](OC)C[C@H](C)C/C=C/[C@@H](OC)CC[C@@H](C)[C@@H](O)[C@@H]1C)N(C)C (some centres undefined) : 0.69
C[C@H]([C@H](O)[C@H](C)CCO)[C@H](O)CC[C@H](C)[C@H](O)[C@H](C)[C@@H](O)CCO : 0.41
COCC(C(=O)O[C@@H]1CCCCCC(=O)O[C@H]([C@@H](C)[C@@H](O)[C@@H](C)CC[C@@H](OC(=O)C(C)N(C)C)[C@H](C)[C@H](OC(C)=O)[C@H](C)CCO)C/C=C/[C@H](OC)C[C@H](C)C/C=C(\C)[C@@H](OC)CC[C@@H](C)[C@@H](O)[C@@H]1C)N(C)C (some centres undefined) : 44
COCC(C(=O)O[C@@H]1C/C=C/C=C/C(=O)O[C@H]([C@@H](C)[C@@H](OC(C)=O)[C@@H](C)CC[C@@H](OC(=O)C(C)N(C)C)[C@H](C)[C@H](OC(C)=O)[C@H](C)/C=C/N(C)C=O)C/C=C/[C@H](OC)C[C@H](C)C/C=C(\C)[C@@H](OC)CC[C@@H](C)[C@@H](OC(C)=O)[C@@H]1C)N(C)C (some centres undefined) : 54
